Where do these numbers come from? They come from the supplement of paper PMC6755084.

Entries and their fraction ligated values follow.
B1: minF1; the commonest letter at each place (parent)
chain: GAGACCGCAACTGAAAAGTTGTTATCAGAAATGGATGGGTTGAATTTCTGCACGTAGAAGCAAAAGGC

- Variants of: B1
- Assay procedure: fraction ligated after 30 min (ligated reads / total reads); higher = more ligase activity
- Condition details: with F1*subA RNA substrate (template-directed ligation), 42 °C
Property label: fraction ligated

INSERT INTO assay_data (residue_codes, measured_number) VALUES
  ('GAGACCGCAACTGAAAAGTTGTTCTCAGAAATGGACGGGTTGAATTTCTGCACGTAGAAGCAAAAGGC [A24C T36C]', 0.0109),
  ('GAGACCGCAACTGAAAAGTTGTTATCAGAAATGGATTGGTTGAATTTCTGCACGTAGAAGCAAAAGGC [G37T]', 0.0174),
  ('GAGACCGCAACTGAAAAGTTGTTATCAGAAATGGGTGGGTTGACTTTCTGCACGTAGAAGCAAAAGGC [A35G A44C]', 0.0421),
  ('GAGACCGCAACTGAAAAGTTGTTATCCGAAATGGACGGGTTGAATTTCTGCACGTAGAAGCAAAAGGC [A27C T36C]', 0.0483),
  ('GAGACCGCAACTGAAAAGTTGTTATCAGAAATCGAGGGGTTGAATTTCTGCACGTAGAAGCAAAAGGC [G33C T36G]', 0.0305),
  ('GAGACCGCAACTGAAAAGTTGTTATCAGAAATCGATGGGTTCAATTTCTGCACGTAGAAGCAAAAGGC [G33C G42C]', 0.011),
  ('GAGACCGCAACTGAAAAGTTGTTATCCGAACTGGATGGGTTGAATTTCTGCACGTAGAAGCAAAAGGC [A27C A31C]', 0.421),
  ('GAGACCGCAACTGAAAAGTTGTTATCAGACATGGATGGGTTGCATTTCTGCACGTAGAAGCAAAAGGC [A30C A43C]', 0.0543),
  ('GAGACCGCAACTGAAAAGTTGTTATCAGAAATGGCTCGGTTGAATTTCTGCACGTAGAAGCAAAAGGC [A35C G37C]', 0.00352),
  ('GAGACCGCAACTGAAAAGTTGTTATCAGACATGGCTGGGTTGAATTTCTGCACGTAGAAGCAAAAGGC [A30C A35C]', 0.00575),
  ('GAGACCGCAACTGAAAAGTTGTTATCAGAGATGGATGGGTTTAATTTCTGCACGTAGAAGCAAAAGGC [A30G G42T]', 0.215),
  ('GAGACCGCAACTGAAAAGTTGTTATCAGCAATGGATGGGTTGATTTTCTGCACGTAGAAGCAAAAGGC [A29C A44T]', 0.705),
  ('GAGACCGCAACTGAAAAGTTGTTATCCGAAATGGATCGGTTGAATTTCTGCACGTAGAAGCAAAAGGC [A27C G37C]', 0.004),
  ('GAGACCGCAACTGAAAAGTTGTTATTAGTAATGGATGGGTTGAATTTCTGCACGTAGAAGCAAAAGGC [C26T A29T]', 0.43),
  ('GAGACCGCAACTGAAAAGTTGTTATCAGACATGGATGGGTTGATTTTCTGCACGTAGAAGCAAAAGGC [A30C A44T]', 0.703),
  ('GAGACCGCAACTGAAAAGTTGTTATCAGAAATGGATGGGTTTCATTTCTGCACGTAGAAGCAAAAGGC [G42T A43C]', 0.000975),
  ('GAGACCGCAACTGAAAAGTTGTTATCAGCATTGGATGGGTTGAATTTCTGCACGTAGAAGCAAAAGGC [A29C A31T]', 0.842),
  ('GAGACCGCAACTGAAAAGTTGTTATCAGAAAAGGATTGGTTGAATTTCTGCACGTAGAAGCAAAAGGC [T32A G37T]', 0.00279),
  ('GAGACCGCAACTGAAAAGTTGTTATCGGAAATGGATGGGTTGAGTTTCTGCACGTAGAAGCAAAAGGC [A27G A44G]', 0.746),
  ('GAGACCGCAACTGAAAAGTTGTTTTCAAAAATGGATGGGTTGAATTTCTGCACGTAGAAGCAAAAGGC [A24T G28A]', 0.0366),
  ('GAGACCGCAACTGAAAAGTTGTTATCAGATATGGATGGGTTGAGTTTCTGCACGTAGAAGCAAAAGGC [A30T A44G]', 0.68),
  ('GAGACCGCAACTGAAAAGTTGTTATCGTAAATGGATGGGTTGAATTTCTGCACGTAGAAGCAAAAGGC [A27G G28T]', 0.824),
  ('GAGACCGCAACTGAAAAGTTGTTATCAGCAATGAATGGGTTGAATTTCTGCACGTAGAAGCAAAAGGC [A29C G34A]', 0.042),
  ('GAGACCGCAACTGAAAAGTTGTTATCCCAAATGGATGGGTTGAATTTCTGCACGTAGAAGCAAAAGGC [A27C G28C]', 0.61),
  ('GAGACCGCAACTGAAAAGTTGTTATCGGAAATGGATGGGTTGATTTTCTGCACGTAGAAGCAAAAGGC [A27G A44T]', 0.774),
  ('GAGACCGCAACTGAAAAGTTGTTATCATAAATGGAAGGGTTGAATTTCTGCACGTAGAAGCAAAAGGC [G28T T36A]', 0.0434),
  ('GAGACCGCAACTGAAAAGTTGTTATCGCAAATGGATGGGTTGAATTTCTGCACGTAGAAGCAAAAGGC [A27G G28C]', 0.793),
  ('GAGACCGCAACTGAAAAGTTGTTATCAGAAATGGAAGGGTTGGATTTCTGCACGTAGAAGCAAAAGGC [T36A A43G]', 0.00353),
  ('GAGACCGCAACTGAAAAGTTGTTAGGAGAAATGGATGGGTTGAATTTCTGCACGTAGAAGCAAAAGGC [T25G C26G]', 0.00725),
  ('GAGACCGCAACTGAAAAGTTGTTATCAGAAAAGGAAGGGTTGAATTTCTGCACGTAGAAGCAAAAGGC [T32A T36A]', 0.00173),
  ('GAGACCGCAACTGAAAAGTTGTTATCAGAAATGGGCGGGTTGAATTTCTGCACGTAGAAGCAAAAGGC [A35G T36C]', 0.00252),
  ('GAGACCGCAACTGAAAAGTTGTTATCAGAAATGCATGGGTTAAATTTCTGCACGTAGAAGCAAAAGGC [G34C G42A]', 0.00229),
  ('GAGACCGCAACTGAAAAGTTGTTATCAGAAAAGGGTGGGTTGAATTTCTGCACGTAGAAGCAAAAGGC [T32A A35G]', 0.0076),
  ('GAGACCGCAACTGAAAAGTTGTAATCAGAAGTGGATGGGTTGAATTTCTGCACGTAGAAGCAAAAGGC [T23A A31G]', 0.264),
  ('GAGACCGCAACTGAAAAGTTGTTATCAGAAATGGATGGGTTAAGTTTCTGCACGTAGAAGCAAAAGGC [G42A A44G]', 0.0717),
  ('GAGACCGCAACTGAAAAGTTGTTATCAGAAATGGAGTGGTTGAATTTCTGCACGTAGAAGCAAAAGGC [T36G G37T]', 0.00976),
  ('GAGACCGCAACTGAAAAGTTGTTATCAGAAATGGATGGGTTACCTTTCTGCACGTAGAAGCAAAAGGC [G42A A43C A44C]', 0.00102),
  ('GAGACCGCAACTGAAAAGTTGTTATCAGAAATGAATAGGTTGAATTTCTGCACGTAGAAGCAAAAGGC [G34A G37A]', 0.00394),
  ('GAGACCGCAACTGAAAAGTTGTTTTCAGAAATGGATAGGTTGAATTTCTGCACGTAGAAGCAAAAGGC [A24T G37A]', 0.00164),
  ('GAGACCGCAACTGAAAAGTTGTTATCTGGAATGGATGGGTTGAATTTCTGCACGTAGAAGCAAAAGGC [A27T A29G]', 0.829),
  ('GAGACCGCAACTGAAAAGTTGTTATCAGAAATTGATGGGTTAAATTTCTGCACGTAGAAGCAAAAGGC [G33T G42A]', 0.0913),
  ('GAGACCGCAACTGAAAAGTTGTGATCAGAAATGGATAGGTTGAATTTCTGCACGTAGAAGCAAAAGGC [T23G G37A]', 0.00471),
  ('GAGACCGCAACTGAAAAGTTGTTAGCAGAAATGGAAGGGTTGAATTTCTGCACGTAGAAGCAAAAGGC [T25G T36A]', 0.0107),
  ('GAGACCGCAACTGAAAAGTTGTTATCAGAAGTGGATAGGTTGAATTTCTGCACGTAGAAGCAAAAGGC [A31G G37A]', 0.00669),
  ('GAGACCGCAACTGAAAAGTTGTTATAAGAAATGGATGGGTTGCATTTCTGCACGTAGAAGCAAAAGGC [C26A A43C]', 0.00276);
